read-out: CD40, CD40 (gene 958); test: BSK_SAg_CD40: BioMAP Diversity Plus: SAg Assay for CD40 Biomarker Activity (AID 2283088); conditions: primary human HUVEC with PBMC; actives raise or lower the signal
Activity calls are given as the source filed them. Rule for the calls: active = hit-call score of the fitted dose curve at least 0.9, where 1 is the maximum; inactive = score below 0.9.
Outcome field: choose from y = active, n = inactive

N#CC(Br)(Br)C(N)=O | n
Oc1ccc2ccc3cccc4ccc1c2c34 | y
CCCCCCCCOC(=O)c1ccc(C(=O)OCCCCCCCC)c(C(=O)OCCCCCCCC)c1 | n
CC(C)(C)OOC(C)(C)CCC(C)(C)OOC(C)(C)C | n
CCOc1cccc(C2(N3CCN(c4ccccc4)CC3)CCC(C)CC2)c1 (stereo not given) | n

Please look at the following compound next.
**Query** // return assay outcome for `Cc1cccc(N)c1N`
**Result** n
